The values you see were collected from patent US20250161476A1.

# testTarget: human GLP1R (Homo sapiens (Human), UniProt P43220)
# Sequence (P43220 24-463): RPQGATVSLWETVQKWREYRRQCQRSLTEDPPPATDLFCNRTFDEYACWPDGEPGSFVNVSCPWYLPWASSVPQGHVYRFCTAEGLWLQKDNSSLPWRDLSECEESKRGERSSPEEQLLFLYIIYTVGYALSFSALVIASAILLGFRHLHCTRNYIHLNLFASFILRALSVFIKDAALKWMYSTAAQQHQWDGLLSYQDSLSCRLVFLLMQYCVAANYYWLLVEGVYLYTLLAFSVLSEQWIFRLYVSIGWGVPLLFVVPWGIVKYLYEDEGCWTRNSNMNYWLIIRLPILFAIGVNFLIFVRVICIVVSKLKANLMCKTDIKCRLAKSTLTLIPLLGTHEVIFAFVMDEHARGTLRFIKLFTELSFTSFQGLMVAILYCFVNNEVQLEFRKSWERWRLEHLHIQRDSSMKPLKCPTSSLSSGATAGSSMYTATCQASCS
# assay: cAMP responsive luciferase reporter assay, HEK293/CRE-Luc/hGLP1R cells
# Type: cell-based
# conditionsUsed: relative to P8 of the same experiment
Where a SMILES comes first, the peptide text is derived from it. [ ]: non-standard residue; d: D form. The star is where a group is joined. Bip(2'-Et,4'-O(CH2)4NH2) = CCc1cc(OCCCCN)ccc1-c1ccc(C[C@H](N)C(=O)O)cc1; Nva(5-(3,5-Me2Ph)) = Cc1cc(C)cc(CCC[C@H](N)C(=O)O)c1; Ala(1H-tetrazol-5-yl) = N[C@@H](Cc1nnn[nH]1)C(=O)O; αMePhe(2-F) = C[C@](N)(Cc1ccccc1F)C(=O)O; X3 = CC(C)(C(=O)*)c1ccn[nH]1; X2 = CC(C)(C(N)=O)C(=O)*
# Lookup of reported HEK293/CRE-LUC/hGLP1R Relative Signal:Noise (% P8) keyed by entry
endpointName: HEK293/CRE-LUC/hGLP1R Relative Signal:Noise (% P8) (%)

# compound, testTarget, unitDescriptor, recordedMeasurement
records = [
    ("CCc1cc(OCCCCN)ccc1-c1ccc(C[C@H](NC(=O)[C@H](CC(=O)O)NC(=O)[C@H](CO)NC(=O)[C@@H](NC(=O)[C@](C)(Cc2ccccc2F)NC(=O)[C@@H](NC(=O)CNC(=O)[C@H](Cc2nn[nH]n2)NC(=O)C(C)(C)C(N)=O)[C@@H](C)O)[C@@H](C)O)C(=O)N[C@@H](CCCc2cc(C)cc(C)c2)C(N)=O)cc1 [P4] (X2-[Ala(1H-tetrazol-5-yl)]GT[αMePhe(2-F)]TSD[Bip(2'-Et,4'-O(CH2)4NH2)][Nva(5-(3,5-Me2Ph))]-NH2)", "human GLP1R (Homo sapiens (Human), UniProt P43220)", "%", 101.8),
    ("CCc1cc(OCCCCN)ccc1-c1ccc(C[C@H](NC(=O)[C@H](CC(=O)O)NC(=O)[C@H](CO)NC(=O)[C@@H](NC(=O)[C@](C)(Cc2ccccc2F)NC(=O)[C@@H](NC(=O)CNC(=O)[C@H](Cc2nn[nH]n2)NC(=O)C(C)(C)c2ccn[nH]2)[C@@H](C)O)[C@@H](C)O)C(=O)N[C@@H](CCCc2cc(C)cc(C)c2)C(N)=O)cc1 [P6] (X3-[Ala(1H-tetrazol-5-yl)]GT[αMePhe(2-F)]TSD[Bip(2'-Et,4'-O(CH2)4NH2)][Nva(5-(3,5-Me2Ph))]-NH2)", "human GLP1R (Homo sapiens (Human), UniProt P43220)", "%", 92.3),
    ("CCc1cc(OCCCCn2cc(COCCOCCOCCOCCOCCOCCOCCOCCN)nn2)ccc1-c1ccc(C[C@H](NC(=O)[C@H](CC(=O)O)NC(=O)[C@H](CO)NC(=O)[C@@H](NC(=O)C(C)(Cc2ccccc2F)NC(=O)[C@@H](NC(=O)CNC(=O)[C@H](Cc2nn[nH]n2)NC(=O)C(C)(C)C(=O)NCCc2cnc[nH]2)[C@@H](C)O)[C@@H](C)O)C(=O)N[C@@H](CCCc2cc(C)cc(C)c2)C(N)=O)cc1 (stereo partly drawn)", "human GLP1R (Homo sapiens (Human), UniProt P43220)", "%", 113.3),
]

---

# testTarget: human GLP1R (Homo sapiens (Human), UniProt P43220)
# assay: cAMP responsive luciferase reporter assay, HEK293/CRE-Luc/hGLP1R cells
# Format: cell-based
# conditionsUsed: relative to P8 of the same experiment
Where a SMILES comes first, the peptide text is derived from it. [ ]: non-standard residue; d: D form. The star is where a group is joined. Bip(2'-Et,4'-O(CH2)4NH2) = CCc1cc(OCCCCN)ccc1-c1ccc(C[C@H](N)C(=O)O)cc1; Malonyl(2,2-Me2,histaminyl) = CC(C)(C(=O)NCCc1cnc[nH]1)C(=O)*; Nva(5-(3,5-Me2Ph)) = Cc1cc(C)cc(CCC[C@H](N)C(=O)O)c1; Ala(1H-tetrazol-5-yl) = N[C@@H](Cc1nnn[nH]1)C(=O)O; X5 = C[C@]1(C(=O)*)CCN(CCc2cnc[nH]2)C1=O; αMePhe(2-F) = C[C@](N)(Cc1ccccc1F)C(=O)O
endpointName: HEK293/CRE-LUC/hGLP1R Relative Signal:Noise (% P8) (%)

# compound, unitDescriptor, recordedMeasurement
records = [
    ("CCc1cc(OCCCCN)ccc1-c1ccc(C[C@H](NC(=O)[C@H](CC(=O)O)NC(=O)[C@H](CO)NC(=O)[C@@H](NC(=O)[C@](C)(Cc2ccccc2F)NC(=O)[C@@H](NC(=O)CNC(=O)[C@H](Cc2nn[nH]n2)NC(=O)C(C)(C)C(=O)NCCc2cnc[nH]2)[C@@H](C)O)[C@@H](C)O)C(=O)N[C@@H](CCCc2cc(C)cc(C)c2)C(N)=O)cc1 [P9] ({Malonyl(2,2-Me2,histaminyl)}-[Ala(1H-tetrazol-5-yl)]GT[αMePhe(2-F)]TSD[Bip(2'-Et,4'-O(CH2)4NH2)][Nva(5-(3,5-Me2Ph))]-NH2)", "%", 114.3),
    ("CCc1cc(OCCCCN)ccc1-c1ccc(C[C@H](NC(=O)[C@H](CC(=O)O)NC(=O)[C@H](CO)NC(=O)[C@@H](NC(=O)[C@](C)(Cc2ccccc2F)NC(=O)[C@@H](NC(=O)CNC(=O)[C@H](Cc2nn[nH]n2)NC(=O)[C@@]2(C)CCN(CCc3cnc[nH]3)C2=O)[C@@H](C)O)[C@@H](C)O)C(=O)N[C@@H](CCCc2cc(C)cc(C)c2)C(N)=O)cc1 [P15-R] (X5-[Ala(1H-tetrazol-5-yl)]GT[αMePhe(2-F)]TSD[Bip(2'-Et,4'-O(CH2)4NH2)][Nva(5-(3,5-Me2Ph))]-NH2)", "%", 103.1),
]

---

# testTarget: human GLP1R (Homo sapiens (Human), UniProt P43220)
# assay: cAMP responsive luciferase reporter assay, HEK293/CRE-Luc/hGLP1R cells
# Format: cell-based
# conditionsUsed: relative to P8 of the same experiment
Where a SMILES comes first, the peptide text is derived from it. [ ]: non-standard residue; d: D form. The star is where a group is joined. Bip(2'-Et,4'-O(CH2)4NH2) = CCc1cc(OCCCCN)ccc1-c1ccc(C[C@H](N)C(=O)O)cc1; Nva(5-(3,5-Me2Ph)) = Cc1cc(C)cc(CCC[C@H](N)C(=O)O)c1; Ala(1H-tetrazol-5-yl) = N[C@@H](Cc1nnn[nH]1)C(=O)O; αMePhe(2-F) = C[C@](N)(Cc1ccccc1F)C(=O)O; Desaminohistidyl = O=C(CCc1c[nH]cn1)*
endpointName: HEK293/CRE-LUC/hGLP1R Relative Signal:Noise (% P8) (%)

# compound, recordedMeasurement
data = [
    ("CCc1cc(OCCCCN)ccc1-c1ccc(C[C@H](NC(=O)[C@H](CC(=O)O)NC(=O)[C@H](CO)NC(=O)[C@@H](NC(=O)[C@](C)(Cc2ccccc2F)NC(=O)[C@@H](NC(=O)CNC(=O)[C@H](Cc2nn[nH]n2)NC(=O)CNC(=O)CCc2c[nH]cn2)[C@@H](C)O)[C@@H](C)O)C(=O)N[C@@H](CCCc2cc(C)cc(C)c2)C(N)=O)cc1 [P12] (Desaminohistidyl-G[Ala(1H-tetrazol-5-yl)]GT[αMePhe(2-F)]TSD[Bip(2'-Et,4'-O(CH2)4NH2)][Nva(5-(3,5-Me2Ph))]-NH2)", 116.2),
]

---

# testTarget: UniProt:P43220
# assay: cAMP responsive luciferase reporter assay, HEK293/CRE-Luc/hGLP1R cells
# Type: cell-based
# conditionsUsed: relative to P8 of the same experiment
Where a SMILES comes first, the peptide text is derived from it. [ ]: non-standard residue; d: D form. The star is where a group is joined. Bip(2'-Et,4'-O(CH2)4NH2) = CCc1cc(OCCCCN)ccc1-c1ccc(C[C@H](N)C(=O)O)cc1; Nva(5-(3,5-Me2Ph)) = Cc1cc(C)cc(CCC[C@H](N)C(=O)O)c1; Ala(1H-tetrazol-5-yl) = N[C@@H](Cc1nnn[nH]1)C(=O)O; X5 = C[C@]1(C(=O)*)CCN(CCc2cnc[nH]2)C1=O; αMePhe(2-F) = C[C@](N)(Cc1ccccc1F)C(=O)O
endpointName: HEK293/CRE-LUC/hGLP1R Relative Potency (% P8 EC50) (%)

# compound, recordedMeasurement
records = [
    ("CCc1cc(OCCCCN)ccc1-c1ccc(C[C@H](NC(=O)[C@H](CC(=O)O)NC(=O)[C@H](CO)NC(=O)[C@@H](NC(=O)[C@](C)(Cc2ccccc2F)NC(=O)[C@@H](NC(=O)CNC(=O)[C@H](Cc2nn[nH]n2)NC(=O)[C@@]2(C)CCN(CCc3cnc[nH]3)C2=O)[C@@H](C)O)[C@@H](C)O)C(=O)N[C@@H](CCCc2cc(C)cc(C)c2)C(N)=O)cc1 [P15-R] (X5-[Ala(1H-tetrazol-5-yl)]GT[αMePhe(2-F)]TSD[Bip(2'-Et,4'-O(CH2)4NH2)][Nva(5-(3,5-Me2Ph))]-NH2)", 40.3),
]
